System: green foxtail (Setaria viridis, SETVI)
Test protocol: Pre-emerge greenhouse herbicide test, phytotoxicity rating
Assay type: in vivo
Applied conditions: Rate 125 g al/ha, 14 days after application, rating scale 0-100
Description: A standard greenhouse herbicide activity screening system was used to evaluate the herbicidal efficacy and crop safety of these test compounds. […] At 14 days after application of the test materials, phytotoxicity ratings were recorded. […]
Endpoint name: SETVI phytotoxicity rating

O=c1n(-c2cc(Oc3ncc([N+](=O)[O-])s3)c(Cl)cc2F)c(=S)n2n1CCCC2
80
O=c1n(-c2cc(Oc3nccc(Cl)n3)c(Cl)cc2F)c(=S)n2n1CCCC2
0
O=c1n(-c2cc(Oc3ccccn3)c(Cl)cc2F)c(=S)n2n1CCCC2
100
CCOC(=O)C(C)Oc1ccc(Oc2cc(-n3c(=O)n4n(c3=S)CCCC4)c(F)cc2Cl)c([N+](=O)[O-])c1 (stereo not shown)
0

----------
Tested on: sicklepod (Cassia obtusifolia, CASOB)
Test protocol: Pre-emerge greenhouse herbicide test, phytotoxicity rating
Type: in vivo
Applied conditions: Rate 125 g al/ha, 14 days after application, rating scale 0-100
Endpoint name: CASOB phytotoxicity rating

N#Cc1ccc(Oc2cc(-n3c(=O)n4n(c3=S)CCCC4)c(F)cc2Cl)nc1
20
O=c1n(-c2cc(Oc3nccc(C(F)(F)F)n3)c(Cl)cc2F)c(=S)n2n1CCCC2
100
CC(C)S(=O)(=O)c1cccnc1Oc1cc(-n2c(=O)n3n(c2=S)CCCC3)c(F)cc1Cl
0
CCOC(=O)C(C)Oc1ccc(Oc2cc(-n3c(=O)n4n(c3=O)CCCC4)c(F)cc2Cl)c([N+](=O)[O-])c1 (stereo not drawn)
0
O=c1n(-c2cc(Oc3nc(F)c(F)cc3F)c(Cl)cc2F)c(=S)n2n1CCCC2
100
COc1nc(OC)nc(Oc2cc(-n3c(=O)n4n(c3=S)CCCC4)c(F)cc2Cl)n1
0

----------
System: upland rice (Oryza sp., var.Tebonnet, RICE)
Test protocol: Post-emerge greenhouse test, crop damage rating
Type: in vivo
Applied conditions: rate 500 g ai/ha, 14 days after application, scale 0-100
Here the recorded crop damage rating RICE is given for each entry.
Endpoint name: crop damage rating RICE

Nc1ccc(Oc2cc(-n3c(=O)n4n(c3=S)CCCC4)c(F)cc2Cl)nc1
30
COc1nc(OC)nc(Oc2cc(-n3c(=O)n4n(c3=S)CCCC4)c(F)cc2Cl)n1
40
N#Cc1cccnc1Oc1cc(-n2c(=O)n3n(c2=S)CCCC3)c(F)cc1Cl
60
O=c1n(-c2cc(Oc3nccc(Cl)n3)c(Cl)cc2F)c(=S)n2n1CCCC2
5
COc1cc(Oc2cc(-n3c(=O)n4n(c3=S)CCCC4)c(F)cc2Cl)nc(OC)n1
10
COc1cc(OC)nc(Oc2cc(-n3c(=O)n4n(c3=S)CCCC4)c(F)cc2Cl)n1
10

----------
Here the recorded crop damage rating CORN is given for each entry.
Tested on: field corn (Zea mays L., var. Dekalb 535, CORN)
Test protocol: Pre-emerge greenhouse test, crop damage rating
Assay type: in vivo
Applied conditions: 125 g ai/ha, 14 days after application, rating scale 0-100
Endpoint name: crop damage rating CORN

Nc1ccc(Oc2cc(-n3c(=O)n4n(c3=S)CCCC4)c(F)cc2Cl)cc1
0
CCOC(=O)C(C)Oc1ccc(Oc2cc(-n3c(=O)n4n(c3=S)CCCC4)c(F)cc2Cl)cc1 (centres unmarked)
0
Cn1nc(-c2cc(Oc3ncccc3C(F)(F)F)c(Cl)cc2F)c(Cl)c1C(F)(F)F
10
COc1cc(OC)nc(Oc2cc(-n3nnn(CCCF)c3=O)c(F)cc2Cl)n1
0
Cc1nn(-c2cc(Oc3ncccn3)c(Cl)cc2F)c(=O)n1C(F)F
90
O=C1C2CCCCN2C(=O)N1c1cc(Oc2ncccc2C(F)(F)F)c(Cl)cc1F (centres unmarked)
0
Cn1nc(-c2cc(Oc3nc(F)c(F)cc3F)c(Cl)cc2F)c(Cl)c1C(F)(F)F
0
O=c1n(CCCF)nnn1-c1cc(Oc2ncccc2C(F)(F)F)c(Cl)cc1F
0
O=c1n(CCCF)nnn1-c1cc(Oc2ncccn2)c(Cl)cc1Cl
20
Cc1nsc(Oc2cc(-n3nnn(CCCF)c3=O)c(F)cc2Cl)c1[N+](=O)[O-]
0
N#Cc1cccnc1Oc1cc(-n2nnn(CCCF)c2=O)c(Cl)cc1Cl
20
